target: Recombinant human c-KIT kinase (Homo sapiens (Human)); experiment: c-KIT kinase chemiluminescence assay (ADP-Glo); settings: ATP 50 μM
Sequence (P10721 26-976): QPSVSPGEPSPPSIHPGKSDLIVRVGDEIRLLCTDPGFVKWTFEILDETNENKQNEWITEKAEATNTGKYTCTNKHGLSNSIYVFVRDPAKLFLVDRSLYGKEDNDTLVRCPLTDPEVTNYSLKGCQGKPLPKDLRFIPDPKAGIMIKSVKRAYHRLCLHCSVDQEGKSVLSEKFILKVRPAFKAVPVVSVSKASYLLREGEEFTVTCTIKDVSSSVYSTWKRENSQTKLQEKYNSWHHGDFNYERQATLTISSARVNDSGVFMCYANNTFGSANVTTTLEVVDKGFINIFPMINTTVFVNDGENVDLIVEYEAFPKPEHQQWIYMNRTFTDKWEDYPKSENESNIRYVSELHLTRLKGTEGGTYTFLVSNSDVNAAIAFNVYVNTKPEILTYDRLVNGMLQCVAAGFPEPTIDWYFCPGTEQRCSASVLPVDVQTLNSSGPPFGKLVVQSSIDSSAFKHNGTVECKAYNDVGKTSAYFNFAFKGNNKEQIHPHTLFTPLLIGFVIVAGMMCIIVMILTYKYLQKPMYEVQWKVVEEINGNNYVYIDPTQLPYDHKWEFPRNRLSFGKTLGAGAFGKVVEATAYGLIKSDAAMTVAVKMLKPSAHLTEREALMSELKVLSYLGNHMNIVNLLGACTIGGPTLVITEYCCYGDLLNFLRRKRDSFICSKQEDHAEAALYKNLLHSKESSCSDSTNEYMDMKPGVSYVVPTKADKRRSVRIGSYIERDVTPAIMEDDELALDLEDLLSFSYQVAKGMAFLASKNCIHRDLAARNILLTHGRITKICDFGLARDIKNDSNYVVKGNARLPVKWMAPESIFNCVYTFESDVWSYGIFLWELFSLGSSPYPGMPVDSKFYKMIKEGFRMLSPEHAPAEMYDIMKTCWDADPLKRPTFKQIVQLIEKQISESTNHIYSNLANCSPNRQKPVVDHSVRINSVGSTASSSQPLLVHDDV
Recorded endpoint: IC50

Kindly note the recorded IC50 for Cc1ncc(-c2noc([C@H]3C[C@@H](OC(F)(F)F)C3)n2)cc1NC(=O)c1cnn2ccc(N3CC4(C3)CC(O)(C(F)F)C4)cc12 [Example 281-45] , which is < 100 nM

Note to self: IC50 recorded for Cc1ccc(-c2noc([C@@H]3C[C@@H]3C(F)F)n2)cc1NC(=O)c1cnn2ccc(N3CC4(COC4)C3)cc12 [Example 277] was < 100 nM

Reported IC50 for Cc1ccc(-c2noc([C@H]3C[C@@H]3F)n2)cc1NC(=O)c1cnn2ccc(N3CC(F)(F)C3)cc12 [Example 222] was < 100 nM

Sample Cc1ccc(-c2noc([C@H]3C[C@@H]3F)n2)cc1NC(=O)c1cnc(-c2ccc3[nH]c(C#N)cc3c2)o1 [Example 308-1] ; IC50 observed: 100 to 1000 nM

---
// sample Cc1ccc(-c2noc([C@H]3C[C@@H]3F)n2)cc1NC(=O)c1cnn2cc(F)c(N3CC4(COC4)C3)cc12 [Example 206] , its IC50 was 100 to 1000 nM

Record Cc1ccc(-c2noc([C@H]3C[C@@H]3F)n2)cc1NC(=O)c1cnc2cnn(C(=O)C(C)C)c2c1 [Example 49] . Reported IC50: > 1000 nM

// sample Cc1ccc(-c2noc([C@H]3C[C@@H]3F)n2)cc1NC(=O)c1cnn2cc(N3CC4(COC4)C3)ccc12 [Example 54] , its IC50 was < 100 nM

Just so you know, measured IC50 for Cc1ccc(-c2noc([C@H]3C[C@@H]3F)n2)cc1NC(=O)c1cnn2cc(F)ccc12 [Example 1a] came out at 100 to 1000 nM

The compound listed as Cc1ccc(-c2noc([C@H]3C[C@@H]3F)n2)cc1NC(=O)c1cnn2ccc(N3C[C@@H](CS(C)(=O)=O)[C@H]3C)cc12 [Example 175] has a reported IC50 of < 100 nM

According to the records, this compound Cc1ccc(-c2nc3n(n2)CCN(C(=O)OC(C)(C)C)C3)cc1NC(=O)c1cnn2ccc(N3CC4(C3)CC(O)(C(F)F)C4)cc12 [Example 322] displays IC50 of < 100 nM

Query Cc1ccc(-c2noc([C@H]3C[C@@H]3F)n2)cc1NC(=O)c1cnn2cc(-c3cn(C(F)F)nn3)ccc12 [Example 107] yields IC50 of < 100 nM

Entry Cc1ccc(-c2ncc3cccn3n2)cc1NC(=O)c1cnn2ccc(N3CC4(C3)CC(O)(C(F)F)C4)cc12 [Example 320] ; IC50 = < 100 nM

IC50 measured on Cc1ccc(-c2noc([C@H]3C[C@@H]3F)n2)cc1NC(=O)c1cnc2[nH]ncc2c1 [Example 31] = > 1000 nM

The recorded IC50 for CCOC(=O)c1cc2cc(-c3ncc(C(=O)Nc4cc(-c5noc([C@H]6C[C@@H]6F)n5)ccc4C)o3)ccc2[nH]1 [Example 308-26] is < 100 nM

Item: O=C(Nc1cc(-c2noc([C@H]3C[C@@H](OC(F)(F)F)C3)n2)ccc1Cl)c1cnn2ccc(N3CC4(C3)CC(O)(C(F)F)C4)cc12 [Example 281-28] | IC50: < 100 nM

IC50 reported for this compound Cc1ccc(-c2noc([C@H]3C[C@@H]3F)n2)cc1NC(=O)c1cnn2ccc(N3CC4(CN(CC(F)(F)F)C4)C3)cc12 [Example 177] : < 100 nM

The measured IC50 associated with Cc1ccc(-c2noc([C@H]3C[C@@H]3F)n2)cc1NC(=O)c1cnn2cc(-c3cnn(C4COC4)c3)ccc12 [Example 137] reads < 100 nM

The compound listed as Cc1ccc(-c2noc([C@H]3C[C@H](OC(F)(F)F)C3)n2)cc1NC(=O)c1cnn2ccc(N3CC4(COC4)C3)cc12 [Example 245] shows IC50 equal to < 100 nM

For Cc1ccc(-c2noc([C@H]3C[C@@H]3F)n2)cc1NC(=O)c1cnn2c1CCCC2 [Example 9] the compound record lists IC50 as > 1000 nM

IC50 measured on Cc1ccc(-c2noc([C@]3(C)C[C@H](OC(F)F)C3)n2)cc1NC(=O)c1cnn2ccc(N3CC4(COC4)C3)cc12 [Example 281] = < 100 nM

Entry under test: Cc1ccc(-c2noc([C@H]3C[C@@H]3F)n2)cc1NC(=O)c1cnc(-c2ccc3[nH]c(=O)[nH]c3c2)o1 [Example 302] . Its IC50 was < 100 nM

Item: Cc1ccc(-c2noc([C@H]3C[C@@H]3F)n2)cc1NC(=O)c1cnc2sccn12 [Example 30] | IC50: < 100 nM

Lab note: Cc1ncc(-c2noc([C@@H]3CN(C(=O)C4(F)CC4)[C@H]3C)n2)cc1NC(=O)c1cnn2ccc(N3CC4(C3)CC(O)(C(F)F)C4)cc12 [Example 281-11] gave IC50 of 100 to 1000 nM

Entry under test: Cc1ccc(-c2noc([C@H]3C[C@@H](OC(F)F)C3(C)C)n2)cc1NC(=O)c1cnn2ccc(N3CC4(CCN(CC(F)F)C4)C3)cc12 [Example 255] . Its IC50 was < 100 nM
